assay: Liver microsome metabolic stability, MLM; format: in vitro ADME; settings: MLM (single value or second of two), percent remaining at 60 min, 1 μM compound, 0.25 mg/mL protein, 1 mM NADPH
The following compounds are shown together with reported Met Stab % (60 mins HLM/MLM) values.
Answer in %, number only, no unit symbol.

Reference set (2 entries):
>>> quantitative_readout("FC(F)(F)c1ccc2cc(-c3nccc(-c4ccc[nH]4)n3)oc2c1")
2
>>> quantitative_readout("Cc1c(-c2csc(-c3ccco3)n2)oc2ccccc12")
2

Req: Any idea what Met Stab % (60 mins HLM/MLM) was measured for Clc1ccc2cc(-c3csc(N4CC5CC4CO5)n3)oc2c1 (stereo not drawn) ?
Resp: 2

Cited source: patent US20220106304A1
